Here, each record is paired with measured protein stability index data.
B1: EPB41L3 (parent)
chain: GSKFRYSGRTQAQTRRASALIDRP

Variants of: B1
Experiment: protein stability index of a GFP-peptide fusion (GPS, HEK-293T) (PSI 1-6); higher = more stable;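 note: lentivirally expressed fusions sorted by FACS into six bins by GFP to DsRed ratio, PSI derived from sequencing read proportions per bin multiplied by bin number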
Conditions: c terminus: a fixed tail appended

[
  {
    "mutation.notation": "G8H",
    "protein stability index": 2.95
  },
  {
    "mutation.notation": "T14A",
    "protein stability index": 3.25
  },
  {
    "mutation.notation": "R9I",
    "protein stability index": 2.81
  },
  {
    "mutation.notation": "R23A",
    "protein stability index": 2.81
  },
  {
    "mutation.notation": "R5A",
    "protein stability index": 3.49
  },
  {
    "mutation.notation": "Q11H",
    "protein stability index": 2.85
  },
  {
    "mutation.notation": "R23E",
    "protein stability index": 3.32
  },
  {
    "mutation.notation": "Q13F",
    "protein stability index": 2.69
  },
  {
    "mutation.notation": "K3S",
    "protein stability index": 2.64
  },
  {
    "mutation.notation": "R5Q",
    "protein stability index": 3.26
  },
  {
    "mutation.notation": "F4K",
    "protein stability index": 4.62
  },
  {
    "mutation.notation": "T14F",
    "protein stability index": 2.8
  },
  {
    "mutation.notation": "S18K",
    "protein stability index": 3.29
  },
  {
    "mutation.notation": "R5G",
    "protein stability index": 3.8
  },
  {
    "mutation.notation": "S7E",
    "protein stability index": 3.63
  }
]

These data points were gathered from the supplement of paper PMC10567573.
